- test system: Histamine H1 receptor (Cavia porcellus, UniProt P31389)
- Construct: from tissue
- Sequence (P31389 whole entry): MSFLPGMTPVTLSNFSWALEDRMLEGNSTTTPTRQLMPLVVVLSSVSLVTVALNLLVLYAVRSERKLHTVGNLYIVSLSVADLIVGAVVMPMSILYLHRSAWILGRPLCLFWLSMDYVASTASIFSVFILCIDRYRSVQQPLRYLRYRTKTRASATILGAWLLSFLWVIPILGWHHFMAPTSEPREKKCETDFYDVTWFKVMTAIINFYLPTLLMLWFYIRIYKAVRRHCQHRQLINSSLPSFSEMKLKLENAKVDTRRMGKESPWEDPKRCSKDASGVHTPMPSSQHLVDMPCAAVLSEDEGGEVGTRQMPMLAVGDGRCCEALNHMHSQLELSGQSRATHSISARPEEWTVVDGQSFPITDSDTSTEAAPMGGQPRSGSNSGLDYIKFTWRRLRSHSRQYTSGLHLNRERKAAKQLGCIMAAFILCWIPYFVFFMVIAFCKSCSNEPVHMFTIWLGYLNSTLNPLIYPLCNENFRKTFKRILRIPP
- measurement description: Histamine H1 receptor binding study
- conditions: test concentration typically 10 μM; read-out: H1 Inh. [%]
quantity name: inhibition at 10 µM (%)

Below, each entry is followed by its recorded inhibition at 10 µM result.
CN(C)CCOc1ccccc1-c1nc(-c2ccccc2)no1 99
CNCCOc1ccccc1-c1nc(-c2ccccc2)no1 64
CN(C)CCOc1ccccc1-c1nc(-c2ccccc2Cl)no1 90
NCCOc1ccccc1-c1nc(-c2ccccc2)no1 27

a: Cc1ccc(-c2nc(-c3ccccc3)no2)c(OCCN(C)C)c1
b: c1ccc(CNCCOc2ccccc2-c2nc(-c3ccccc3)no2)cc1
c: c1ccc(-c2noc(-c3ccccc3OCCN3CCOCC3)n2)cc1
Data request: Rank the items in ascending order with respect to inhibition at 10 µM. A ranking is expressed here by listing the labels in the requested order.
Data returned: b, c, a

###

- Test system: Sigma receptor
- measurement description: Sigma receptor binding study
- conditions: test concentration typically 10 μM
quantity name: Sigma Inh. [%] (%)

In the examples that follow, each entry is paired with its recorded Sigma Inh. [%].
compound	scale unit	observed measurement
CN(C)CCOc1ccccc1-c1nc(-c2ccco2)no1 [Example 57]	%	49
CN(C)CCOc1ccccc1-c1nc(-c2ccccc2Br)no1 [Example 64]	%	76
CN(C)CCOc1ccccc1-c1nc(-c2ccccn2)no1 [Example 43]	%	0
CN(C)CCOc1ccccc1-c1nc(-c2cccc(Br)c2)no1 [Example 48]	%	74
c1ccc(-c2noc(-c3ccccc3OCCN3CCCC3)n2)cc1 [Example 13]	%	83
CN(C)CCOc1ccccc1-c1nc(-c2cccc(C(F)(F)F)c2)no1 [Example 44]	%	93
Cc1ccc(-c2nc(-c3ccccc3)no2)c(OCCN(C)C)c1 [Example 67]	%	54
CCNCCOc1ccccc1-c1nc(-c2ccccc2)no1 [Example 23]	%	79
CN(C)CCOc1ccccc1-c1nc(-c2ccc(Cl)cc2Cl)no1 [Example 28]	%	84
CN(C)CCOc1ccccc1-c1nc(-c2ccccc2F)no1 [Example 34]	%	75

1: CN(C)CCOc1ccccc1-c1nc(-c2ccc(O)cc2)no1 [Example 8]
2: c1ccc(-c2noc(-c3ccccc3OCCN3CCOCC3)n2)cc1 [Example 4]
Data request: // compare measured Sigma Inh. [%], left 1 , right 2 , return larger Write the label of whichever entry you select.
Data returned: 1

###

- System: "Na+ channel site 2"-binding site
- measurement description: Binding to the Na+ channel site 2 binding site ([3H]-BTX)
- conditions: test concentration typically 10 μM
quantity name: Na+-channel Inh. [%] ([3H]-BTX) (%)

c1ccc(-c2noc(-c3ccccc3OCCN3CCOCC3)n2)cc1 79
CN(C)CCOc1ccccc1-c1noc(-c2ccccc2)n1 91
CCN(CC)CCOc1ccccc1-c1nc(-c2ccccc2)no1 90
CN(C)CCOc1ccccc1-c1nc(-c2ccccc2Cl)no1 79
CN(C)CCOc1ccccc1-c1nc(-c2ccc(Cl)cc2Cl)no1 91
CN(C)CCOc1ccccc1-c1nc(Cc2ccccc2)no1 82
CN1CCN(CCOc2ccccc2-c2nc(-c3ccccc3)no2)CC1 78

###

- test system: Histamine H1 receptor (Cavia porcellus)
- Construct: from tissue
- measurement description: Histamine H1 receptor binding study
- conditions: test concentration typically 10 μM; read-out: H1 Inh. [%]
quantity name: inhibition at 10 µM (%)

CN(C)CCOc1ccccc1-c1nc(-c2ccco2)no1 90
CN(C)CCOc1ccccc1-c1nc(-c2ccc(Cl)cc2)no1 94
CN(C)CCOc1ccccc1-c1nc(-c2cccc(Cl)c2)no1 84
Cc1ccccc1-c1noc(-c2ccccc2OCCN(C)C)n1 87
CN(C)CCOc1ccccc1-c1noc(-c2ccccc2)n1 98
Cc1ccc(-c2noc(-c3ccccc3OCCN(C)C)n2)cc1 78
CN(C)CCOc1ccccc1-c1nc(-c2ccc(O)cc2)no1 94
CN1CCN(c2ccccc2-c2nc(-c3ccccc3)no2)CC1 99

###

- System: Sigma receptor
- measurement description: Sigma receptor binding study
- conditions: test concentration typically 10 μM
quantity name: Sigma Inh. [%] (%)

Example entries and their recorded answers appear below.
CN(C)CCOc1ccccc1-c1nc(-c2ccccc2Cl)no1 84
Cc1cccc(-c2nc(-c3ccccc3)no2)c1OCCN(C)C 79
CN(C)CCOc1ccccc1-c1noc(-c2ccccc2)n1 62

A: CN(C)CCOc1ccccc1-c1nc(-c2ccc(N)cc2)no1
B: CN(C)CCOc1ccccc1-c1nc(-c2ccc(Cl)cc2)no1
Data request: Hi there! Just curious which has the higher Sigma Inh. [%] between A and B . Reply with the label of the item you choose.
Data returned: B

P: CN1CCN(CCOc2ccccc2-c2nc(-c3ccccc3)no2)CC1
Q: CN(C)CCOc1ccccc1-c1nc(-c2ccccc2)no1
Data request: Hi there! Just curious which has the higher Sigma Inh. [%] between P and Q . Answer format: the label of the selected item.
Data returned: P

###

- System: Sigma receptor
- measurement description: Sigma receptor binding study
- conditions: test concentration typically 10 μM
quantity name: Sigma Inh. [%] (%)

// worked examples, Sigma Inh. [%] included
compound	Sigma Inh. [%] (%)
Cc1ccc(-c2noc(-c3ccccc3OCCN(C)C)n2)cc1 [Example 17]	65
COc1ccc(-c2noc(-c3ccccc3OCCN(C)C)n2)cc1 [Example 19]	74
CN1CCN(c2ccccc2-c2nc(-c3ccccc3)no2)CC1 [Example 40]	76
CC(C)NCCOc1ccccc1-c1nc(-c2ccccc2)no1 [Example 21]	76
Cc1ccccc1-c1noc(-c2ccccc2OCCN(C)C)n1 [Example 33]	77

A: CNCCOc1ccccc1-c1nc(-c2ccccc2)no1 [Example 22]
B: NCCOc1ccccc1-c1nc(-c2ccccc2)no1 [Example 24]
Data request: Min Sigma Inh. [%]? A | B Write the label of whichever entry you select.
Data returned: B

###

- Test system: Sigma receptor
- measurement description: Sigma receptor binding study
- conditions: test concentration typically 10 μM
quantity name: Sigma Inh. [%] (%)

c1ccc(CNCCOc2ccccc2-c2nc(-c3ccccc3)no2)cc1 84
CN(C)CCOc1ccccc1-c1nc(-c2ccc(F)cc2)no1 85
CCN(CC)CCOc1ccccc1-c1nc(-c2ccccc2)no1 68
CN(C)CCOc1ccccc1-c1nc(-c2cccc(Cl)c2)no1 82
CN(C)CCOc1ccccc1-c1nc(-c2ccsc2)no1 68
